Target: 5-HT1A (Homo sapiens)
Test: cell-based
Assign pEC50 to each entry below.
# pEC50 = -log10(concentration in molar units)

Input: // query pEC50 value for entry CN(C)CCc1c[nH]c2ccc(O)c(F)c12 [Compound 40]
Output: 8.95

Input: // query pEC50 value for entry C=CCN(C)CCc1c[nH]c2ccc(OC)c(F)c12 [Compound 34]
Output: 8.08

Input: // query pEC50 value for entry CCN(CC)CCc1c[nH]c2ccc(OC)c(F)c12 [Compound 27]
Output: 8.50

Input: // query pEC50 value for entry CCCN(CCC)CCc1c[nH]c2ccc(OC)cc12 [Compound 13]
Output: 7.81

Input: // query pEC50 value for entry CCCN(CC)CCc1c[nH]c2ccc(OC)cc12 [Compound 12]
Output: 8.08

Input: // query pEC50 value for entry COc1ccc2[nH]cc(CCN(C)C(C)C)c2c1 [Compound 14]
Output: 6.95

Input: // query pEC50 value for entry CSc1ccc2[nH]cc(CCN(C)C)c2c1 [Compound 67]
Output: 7.93

Input: // query pEC50 value for entry COc1ccc2[nH]cc(CCN3CC=CC3)c2c1 [Compound 21]
Output: 9.59

Input: // query pEC50 value for entry COc1ccc2[nH]cc(CCN3CCCC3)c2c1F [Compound 35]
Output: 9.43

Input: // query pEC50 value for entry CCN(CC)CCc1c[nH]c2ccc(OC)cc12 [Compound 11]
Output: 7.43

Input: // query pEC50 value for entry CN(C)CCc1c[nH]c2ccc(O)cc12 [Compound 49, Bufotenine, reference compound]
Output: 8.03

Input: // query pEC50 value for entry CSc1ccc2[nH]cc(CCN3CCCC3)c2c1 [Compound 69]
Output: 8.98

Input: // query pEC50 value for entry CCCN(C)CCc1c[nH]c2ccc(OC)c(F)c12 [Compound 28]
Output: 8.51

Input: // query pEC50 value for entry COc1ccc2[nH]cc(CCN(C(C)C)C(C)C)c2c1F [Compound 33]
Output: 7.45

Input: // query pEC50 value for entry COc1ccc2[nH]cc(CCN3CCCCC3)c2c1F [Compound 36]
Output: 8.05

Input: // query pEC50 value for entry C=CCN(C)CCc1c[nH]c2ccc(OC)cc12 [Compound 16]
Output: 7.37

Input: // query pEC50 value for entry CCCN(CCC)CCc1c[nH]c2ccc(OC)c(F)c12 [Compound 30]
Output: 8.43

Input: // query pEC50 value for entry CCN(C)CCc1c[nH]c2ccc(OC)cc12 [Compound 9]
Output: 7.59

Input: // query pEC50 value for entry CCN(C)CCc1c[nH]c2ccc(OC)c(F)c12 [Compound 26]
Output: 8.75

Input: // query pEC50 value for entry CCCN(C)CCc1c[nH]c2ccc(OC)cc12 [Compound 10]
Output: 7.22

Input: // query pEC50 value for entry COc1ccc2[nH]cc(CCN3CCCC3)c2c1 [Compound 18]
Output: 8.67

Input: // query pEC50 value for entry COc1ccc2[nH]cc(CCN(C)C(C)C)c2c1F [Compound 31]
Output: 7.85

Input: // query pEC50 value for entry CCCN(CC)CCc1c[nH]c2ccc(OC)c(F)c12 [Compound 29]
Output: 9.02

---

Molecular target: 5-HT1A (Homo sapiens)
Experiment: BRET signaling assay: 5-HT1A-mediated activation of heterotrimeric Gi1 (TRUPATH, HEK293-T)
Details: EC50 (nM) Mean BRET Gi1-1A, Table 2
Assign EC50 to each entry below.
In your response, put the unit directly after the numeric value.

Input: // query EC50 value for entry CCCN(CCC)CCc1c[nH]c2ccc(OC)c(F)c12 [Compound 6]
Output: 3.7 nM

Input: // query EC50 value for entry CCN(C)CCc1c[nH]c2ccc(OC)c(F)c12 [Compound 2]
Output: 1.77 nM

Input: // query EC50 value for entry COc1ccc2[nH]cc(CCN(C)C(C)C)c2c1F [Compound 7]
Output: 14.2 nM

Input: // query EC50 value for entry CCCN(C)CCc1c[nH]c2ccc(OC)c(F)c12 [Compound 4]
Output: 3.06 nM

Input: // query EC50 value for entry C=CCN(C)CCc1c[nH]c2ccc(OC)c(F)c12 [Compound 10]
Output: 8.41 nM

Input: // query EC50 value for entry CCCN(CC)CCc1c[nH]c2ccc(OC)c(F)c12 [Compound 5]
Output: 0.95 nM

Input: // query EC50 value for entry CCCN(CCc1c[nH]c2ccc(OC)c(F)c12)C(C)C [Compound 8]
Output: 16.8 nM

Input: // query EC50 value for entry COc1ccc2[nH]cc(CCN(C(C)C)C(C)C)c2c1F [Compound 9]
Output: 35.8 nM

Input: // query EC50 value for entry COc1ccc2[nH]cc(CCN3CCCCC3)c2c1F [Compound 12]
Output: 8.97 nM

Input: // query EC50 value for entry CCN(CC)CCc1c[nH]c2ccc(OC)c(F)c12 [Compound 3]
Output: 3.18 nM

Input: // query EC50 value for entry CN(C)CCc1c[nH]c2ccc(O)c(F)c12 [Compound 16]
Output: 1.13 nM

---

Biological target: 5-HT2A (Homo sapiens, UniProt P28223)
Sequence (P28223 whole entry): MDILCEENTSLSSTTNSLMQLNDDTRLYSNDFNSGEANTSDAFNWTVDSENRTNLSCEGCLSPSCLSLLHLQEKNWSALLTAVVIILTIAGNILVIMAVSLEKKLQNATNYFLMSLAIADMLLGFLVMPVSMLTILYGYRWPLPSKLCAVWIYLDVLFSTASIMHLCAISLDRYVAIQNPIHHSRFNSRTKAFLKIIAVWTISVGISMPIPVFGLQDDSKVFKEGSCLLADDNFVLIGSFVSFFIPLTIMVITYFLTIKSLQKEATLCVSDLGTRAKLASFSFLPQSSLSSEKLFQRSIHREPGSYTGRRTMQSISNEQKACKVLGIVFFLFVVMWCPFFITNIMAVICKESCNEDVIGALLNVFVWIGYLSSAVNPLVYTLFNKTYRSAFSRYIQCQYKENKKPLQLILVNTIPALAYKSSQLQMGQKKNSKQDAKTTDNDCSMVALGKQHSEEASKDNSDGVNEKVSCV
Assay: cell-based
Set-up: expressed in transfected cells; host or cells: HEK293-T
Assign pEC50 to each entry below.
# pEC50 = -log10(concentration in molar units)

Input: // query pEC50 value for entry CCCN(C)CCc1c[nH]c2ccc(OC)c(F)c12
Output: 6.60

Input: // query pEC50 value for entry CCCN(C)CCc1c[nH]c2ccc(OC)cc12
Output: 7.10

Input: // query pEC50 value for entry CCCN(CCC)CCc1c[nH]c2ccc(OC)c(F)c12
Output: 6.74

Input: // query pEC50 value for entry CCCN(CCC)CCc1c[nH]c2ccc(OC)cc12
Output: 7.09

Input: // query pEC50 value for entry CCN(C)CCc1c[nH]c2ccc(OC)cc12
Output: 7.02

Input: // query pEC50 value for entry CCN(C)CCc1c[nH]c2ccc(OC)c(F)c12
Output: 6.64

---

Biological target: human 5-HT1A (Homo sapiens, UniProt P08908)
Sequence (P08908 1-422): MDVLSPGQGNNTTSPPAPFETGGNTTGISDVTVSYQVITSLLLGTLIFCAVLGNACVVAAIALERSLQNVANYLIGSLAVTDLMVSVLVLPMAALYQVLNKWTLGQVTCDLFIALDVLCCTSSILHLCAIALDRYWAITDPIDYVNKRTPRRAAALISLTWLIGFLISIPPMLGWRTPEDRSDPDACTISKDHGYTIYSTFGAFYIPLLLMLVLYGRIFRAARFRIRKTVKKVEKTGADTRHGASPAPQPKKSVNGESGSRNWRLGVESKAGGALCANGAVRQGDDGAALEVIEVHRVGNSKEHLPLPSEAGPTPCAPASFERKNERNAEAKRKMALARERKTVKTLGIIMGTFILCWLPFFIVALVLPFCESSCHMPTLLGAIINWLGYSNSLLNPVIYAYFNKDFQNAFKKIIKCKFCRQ
Assay: cell-based
recorded.endpoint: pEC50
# pEC50 = -log10(concentration in molar units)

Input: // query pEC50 value for entry COc1ccc2[nH]cc(CCN(C(C)C)C(C)C)c2c1F
Output: 8.22

Input: // query pEC50 value for entry CC(C)N(CCc1c[nH]c2ccccc12)C(C)C
Output: 5.88

Input: // query pEC50 value for entry COc1ccc2c(c1)c(CCN1CCCC1)cn2C
Output: 7.05

Input: // query pEC50 value for entry CN(C)CCc1c[nH]c2cccc(F)c12
Output: 7.06

Input: // query pEC50 value for entry COc1ccc2[nH]cc(CCN(C)C(C)C)c2c1
Output: 7.29

Input: // query pEC50 value for entry C=CCN(C)CCc1c[nH]c2ccc(OC)c(F)c12
Output: 8.59

Input: // query pEC50 value for entry c1ccc2c(CCN3CCCC3)c[nH]c2c1
Output: 7.72

Input: // query pEC50 value for entry CCCN(CCC)CCc1c[nH]c2ccc(OC)c(F)c12
Output: 8.88

Input: // query pEC50 value for entry CCCN(C)CCc1c[nH]c2ccc(OC)c(F)c12
Output: 9.38

Input: // query pEC50 value for entry CN(C)CCc1c[nH]c2cccc(O)c12 [Compound 52, Psilocin, reference compound]
Output: 6.29

Input: // query pEC50 value for entry COc1ccc2[nH]cc(CCN(C)C(C)C)c2c1F
Output: 8.53

Input: // query pEC50 value for entry COc1cccc2[nH]cc(CCN3CCCC3)c12
Output: 6.79

Input: // query pEC50 value for entry COc1cccc2[nH]cc(CCN(C)C)c12
Output: 6.25

Input: // query pEC50 value for entry CCN(CC)CCc1c[nH]c2ccc(OC)cc12
Output: 7.96

Input: // query pEC50 value for entry CC(C)N(C)CCc1c[nH]c2ccccc12
Output: 5.70

Input: // query pEC50 value for entry C=CCN(C)CCc1c[nH]c2ccc(OC)cc12
Output: 8.02

Input: // query pEC50 value for entry c1[nH]c2cc3c(cc2c1CCN1CCCC1)OCO3
Output: 8.46

Input: // query pEC50 value for entry COc1ccc2[nH]cc(CCn3ccnc3)c2c1
Output: 6.53

Input: // query pEC50 value for entry CCCN(CCc1c[nH]c2ccc(OC)cc12)C(C)C
Output: 7.57

Input: // query pEC50 value for entry CSc1ccc2[nH]cc(CCN(C)C)c2c1
Output: 8.70

Input: // query pEC50 value for entry COc1ccc2c(c1)c(CCN1CC=CC1)cn2C
Output: 6.68

Input: // query pEC50 value for entry COc1ccc2c(CCN(C)C)c[nH]c2c1
Output: 5.49

Input: // query pEC50 value for entry Oc1ccc2[nH]cc(CCN3C[C@H]4C=C[C@@H]3CC4)c2c1
Output: 6.83

Input: // query pEC50 value for entry COc1ccc2[nH]cc(CCN3CCCCC3)c2c1F
Output: 8.62

Input: // query pEC50 value for entry CCN(C)CCc1c[nH]c2ccc(OC)c(F)c12
Output: 9.50

Input: // query pEC50 value for entry CCCN(CC)CCc1c[nH]c2ccc(OC)cc12
Output: 8.61

Input: // query pEC50 value for entry COc1ccc2[nH]cc(CCN3C[C@H]4C=C[C@@H]3CC4)c2c1
Output: 6.20

Input: // query pEC50 value for entry C=CCN(CC=C)CCc1c[nH]c2ccc(OC)cc12
Output: 8.33

Input: // query pEC50 value for entry Fc1cccc2[nH]cc(CCN3CCCC3)c12
Output: 7.78

Input: // query pEC50 value for entry CCC1C[C@@H]2C=C[C@H]1N(CCc1c[nH]c3cc4c(cc13)OCO4)C2 (stereo partly shown)
Output: 5.77

Input: // query pEC50 value for entry COc1ccc2[nH]cc(CCN3C[C@H]4C=C[C@@H]3CC4)c2c1F
Output: 6.76

Input: // query pEC50 value for entry COc1ccc2[nH]cc(CCN3CC=CCC3)c2c1
Output: 8.06

Input: // query pEC50 value for entry COc1ccc2[nH]cc(CCN3CC=CC3)c2c1F
Output: 11.64

Input: // query pEC50 value for entry C1=CC2CCC1CN2CCc1c[nH]c2ccccc12 (stereo not shown)
Output: 4.81

Input: // query pEC50 value for entry CN(C)CCc1c[nH]c2ccc(O)c(F)c12
Output: 9.60

Input: // query pEC50 value for entry COc1ccc2c(CCN3CCCC3)c[nH]c2c1
Output: 6.31

Input: // query pEC50 value for entry CCCN(CC)CCc1c[nH]c2ccc(OC)c(F)c12
Output: 9.82

Input: // query pEC50 value for entry CCCN(C)CCc1c[nH]c2ccc(OC)cc12
Output: 7.73

Input: // query pEC50 value for entry CCN(C)CCc1c[nH]c2ccc(OC)cc12
Output: 8.35

Input: // query pEC50 value for entry COc1ccc2c(c(CCN3CC=CC3)cn2C)c1F
Output: 8.56

Input: // query pEC50 value for entry Cc1cccc2c(CCN(C)C)c[nH]c12
Output: 5.92

Input: // query pEC50 value for entry COc1ccc2[nH]cc(CCN(C)C)c2c1F
Output: 9.73

Input: // query pEC50 value for entry c1ccc(COc2ccc3[nH]cc(CCN4CCCC4)c3c2)cc1
Output: 7.48
